Data origin: patent US9789203B2

testSystem: rat cKIT ECD
Sequence (as listed by the source): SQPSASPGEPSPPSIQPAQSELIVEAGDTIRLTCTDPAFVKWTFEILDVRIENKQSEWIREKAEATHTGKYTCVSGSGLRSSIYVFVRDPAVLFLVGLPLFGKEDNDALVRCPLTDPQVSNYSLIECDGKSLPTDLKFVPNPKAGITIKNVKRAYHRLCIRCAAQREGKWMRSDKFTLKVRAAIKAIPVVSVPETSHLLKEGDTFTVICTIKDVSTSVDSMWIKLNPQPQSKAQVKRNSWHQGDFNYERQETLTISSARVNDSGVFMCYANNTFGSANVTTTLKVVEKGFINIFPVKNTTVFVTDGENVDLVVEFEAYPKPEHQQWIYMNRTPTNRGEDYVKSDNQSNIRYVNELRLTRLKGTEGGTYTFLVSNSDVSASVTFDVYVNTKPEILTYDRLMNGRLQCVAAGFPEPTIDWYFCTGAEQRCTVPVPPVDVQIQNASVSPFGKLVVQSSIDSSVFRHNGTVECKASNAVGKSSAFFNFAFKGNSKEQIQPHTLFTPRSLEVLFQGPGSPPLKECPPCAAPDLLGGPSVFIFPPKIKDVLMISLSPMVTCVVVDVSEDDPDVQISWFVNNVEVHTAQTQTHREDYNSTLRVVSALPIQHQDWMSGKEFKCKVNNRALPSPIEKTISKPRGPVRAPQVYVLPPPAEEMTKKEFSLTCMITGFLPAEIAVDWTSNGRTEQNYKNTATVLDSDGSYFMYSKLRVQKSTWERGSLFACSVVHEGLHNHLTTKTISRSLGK
testDescription: SPR (Biacore 2000) affinity measurement
Type: binding
conditionSummary: 25° C., antibody captured, ECD in solution
measuredAttribute: Affinity to rat cKIT

stdin: Affinity to rat cKIT for NEG027: anti-cKIT antibody of Table 1, VH SEQ ID NO 64, VL SEQ ID NO 73 (antibody, V domains shown) VH: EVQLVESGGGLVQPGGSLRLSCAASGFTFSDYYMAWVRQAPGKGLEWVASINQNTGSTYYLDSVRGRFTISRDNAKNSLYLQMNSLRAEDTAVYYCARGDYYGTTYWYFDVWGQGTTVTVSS VL: EIVMTQSPATLSLSPGERATLSCRASQDISNYLNWYQQKPGQAPRLLIYYTSRLQSGIPARFSGSGSGTDYTLTISSLEPEDFAVYYCQQGKKLWSFGGGTKVEIK ?
stdout: Not reactive

stdin: Item NEG086: anti-cKIT antibody of Table 1, VH SEQ ID NO 100, VL SEQ ID NO 109 (antibody, V domains shown) VH: EVQLVESGGGLVQPGGSLRLSCAASGFTFSDYYMAWVRQAPGKGLEWVANINQIAGSTYYVDSVQGRFTISRDNAKNSLYLQMNSLRAEDTAVYYCARGDYYGTTYWYFDVWGQGTTVTVSS VL: DIQMTQSPSSLSASVGDRVTITCRASQSISSYLNWYQQKPGKAPKLLIYYTSRLQSGVPSRFSGSGSGTDFTLTISSLQPEDFATYYCQQGRRLWSFGGGTKVEIK has what recorded Affinity to rat cKIT?
stdout: Not reactive
